- System: Human immunodeficiency virus 1
- experiment-notes: Antiviral activity against NNRTI-resistant Human immunodeficiency virus 1 harboring reverse transcriptase K103N mutation infected in human TZM-bl cells assessed decrease in p24 level after 7 days by ELISA
- Type: functional, organism-based
- experimental-context: Human immunodeficiency virus 1, TZM-bl, 168 h
readout-type: EC50 (nM)
Please state the figure in nM; there is no need to write the unit.

The reported EC50 of the compound CC(C)c1c(O[C@H]2CCCC[C@@H]2C)cc(CCc2ccccc2)[nH]c1=O (racemic) was 75

The reported EC50 of the compound CC1CCCCC1Oc1cc(CCc2ccccc2)[nH]c(=O)c1I (mixture of isomers) was 100
